System: P. falciparum stage V gametocytes
Parameters: BacTiter-Glo ATP luminescence viability of purified stage V gametocytes in 384-well plates, per cent inhibition versus DMSO
PROTOCOL_CONDITIONS: 48 h, 5 µM; inhibitor
Screen size: about 13,000 compounds; about 3,200 (25%) showed an effect of 50% or more. Some of the results follow.

# MOLECULE, % Inhibition / %
records = [
    ("O=C(Nc1cccc(-c2cccc(-c3nc4ccc(F)cc4[nH]3)c2)c1)Nc1ccc(F)c(F)c1F", -45),
    ("Fc1ccc(NC(=S)NCCc2ccccc2)cc1", -9.114),
    ("CCCCCCCC1CCN(C[C@H](O)c2ccnc3ccc(OC)cc23)CC1", 6.722),
    ("CS(=O)(=O)CCNCc1ccc(-c2cc3c(Nc4ccc(OCc5cccc(F)c5)c(Cl)c4)ncnc3s2)[nH]1", -19.72),
    ("CCCCCCCN1CCC(CC(=O)Nc2ccnc3ccc(OC)cc23)C(CC)C1 (centres unmarked)", -28.07),
    ("Cc1cc(=O)[nH]c(-n2nc(C)cc2NC(=O)C2(c3ccc(Cl)cc3)CCCC2)n1", 43.65),
    ("Cc1ccc(F)c(OC2CCN(c3ccc(C(=O)NC4CC4)cn3)CC2)c1", 27.07),
    ("N#Cc1ccc(N(CC(=O)NCCc2ccccc2)CC2CC2)c2ccccc12", -1.825),
    ("C=C[C@H]1CN(CCCCCCC)CC[C@H]1C[C@@H](Cc1ccnc2ccc(OC)cc12)OC(=O)[C@](OC)(c1ccccc1)C(F)(F)F", 78.38),
    ("CS(=O)(=O)CCNCc1cccc(-c2cc3c(Nc4ccc(OCc5cccc(F)c5)c(Cl)c4)ncnc3s2)c1", -64.99),
    ("CN(CC(=O)N1CCN(S(=O)(=O)c2cccc(Cl)c2)CC1CN1CCCC1)c1ccc(Cl)c(Cl)c1 (centres unmarked)", 71.55),
    ("COc1ccc(Cn2c(Nc3cccc(C(F)(F)F)c3)nc3cc(C(=O)NCCN4CCCC4)cnc32)cc1Cl", 60.89),
    ("COc1ccc(C(=O)N2CCc3cc4nccc(N5CCN6CCC[C@H]6C5)c4cc32)cc1", 84.78),
    ("O=C(Nc1ccc(S(=O)(=O)N2CCCCC2)cc1)c1cc(-c2ccccc2O)n[nH]1", -14.76),
    ("FC(F)(F)c1cccc2c(NN=Cc3ccccc3)ccnc12", 48.45),
    ("CC1(C)N=C(N)N=C(N)N1c1ccc([N+](=O)[O-])cc1", 35.22),
    ("Cc1cc(NN=Cc2ccccn2)c2cc(F)ccc2n1", 16.37),
    ("CN(C(=O)/C=C/c1c(Cl)cccc1Cl)C1CCN(CCCCCNC(=O)/C=C/c2ccc(Cl)c(Cl)c2)CC1", -22.04),
    ("O=C(c1cc2ccccc2o1)N1CCc2cc3nccc(N4CCN5CCC[C@H]5C4)c3cc21", -9.524),
    ("CO[C@@H]1C[C@@H](C(=O)Nc2ccccc2)N(c2ccc(C#N)c3ccccc23)C1", 86.31),
    ("COc1cc(Cc2cnc3nc(N)nc(N)c3c2C)cc(OC)c1OC", -6.965),
    ("CC(=O)N[C@H](C(=O)Nc1cccc(-c2ccc(-c3nc4cccc(C)c4[nH]3)s2)c1)C(C)C", 31.89),
    ("N#Cc1ccc(N2C[C@@H](OCc3ccccc3)C[C@H]2C(=O)NCCC(c2ccccc2)c2ccccc2)c2ccccc12", 62.52),
    ("CC(C)c1ccc(-c2noc(SCC(=O)N3CCCCC3C)n2)cc1 (centres unmarked)", -11.89),
    ("CCCCCCCC1CC(CC(=O)Nc2ccnc3ccc(OC)cc23)CN1C(=O)OC(C)(C)C (centres unmarked)", 29.24),
    ("Cc1cc(NC(=O)[C@@H](Nc2ccc(C#N)c3ccccc23)C2CCCCC2)ccc1F", -42.79),
    ("C=C[C@H]1CN(CCCCCCC)CC[C@H]1CC(=O)Nc1cnnc2ccc(OC)cc12", 45.94),
    ("COc1ccc(/C=C/C(=O)N2CCc3cc4nccc(N5CCN6CCC[C@H]6C5)c4cc32)cc1", -29.41),
    ("Cc1nc(-c2cccc(C(=O)N(Cc3cncn3Cc3cccc(C(F)(F)F)c3)CC3CC3)c2)cs1", -20.16),
    ("Cc1ccc(C(=O)N2CCc3cc4nccc(N5CCN6CCC[C@H]6C5)c4cc32)cc1", -10.33),
    ("O=C(/C=C/c1cccs1)NCC(NCCCNc1cc(=O)c2ccccc2[nH]1)c1cc(Br)cc(Br)c1 (centres unmarked)", -18.64),
    ("COc1ccc(Cn2c(Nc3cccc(C(F)(F)F)c3)nc3ccc(C(=O)NCCN4CCCC4)cc32)cc1Cl", -30.77),
]
